Each entry below carries its reported IC50.
System: HDACs (HeLa cell nuclear extracts)
experiment summary: HDAC enzymatic activity, Biomol Color de Lys system
Format: biochemical
test parameters: 1 hour, 25° C.

Reference set, count: 3
molecule | endpoint name | meas value
O=C(CCCCCN1CCN(Cc2cc3nc(-c4cccc5[nH]ncc45)nc(N4CCOCC4)c3s2)CC1)NO [Compound 12] | IC50 | 100 to 1000 nM
Nc1ccc(-c2nc(N3CCOCC3)c3sc(CNCc4ccc(/C=C/C(=O)NO)cc4)cc3n2)cc1 [Compound 210] | IC50 | 100 to 1000 nM
CN(Cc1cc2nc(-c3cccc(CCO)c3)nc(N3CCOCC3)c2s1)c1ncc(C(=O)NO)cn1 [Compound 306] | IC50 | < 100 nM

Now for the molecule whose IC50 we want.
Given the entry CC(c1cc2nc(-c3cccc4[nH]ncc34)nc(N3CCOCC3)c2s1)N(C)c1ncc(C(=O)NO)cn1 (stereo not shown) [Compound 70] , report its measured IC50.
< 100 nM

* * *

tested on: PI3Kα (p110α/p85α) (Homo sapiens, UniProt P42336)
Construct: GST (N)
Sequence (P42336 whole entry): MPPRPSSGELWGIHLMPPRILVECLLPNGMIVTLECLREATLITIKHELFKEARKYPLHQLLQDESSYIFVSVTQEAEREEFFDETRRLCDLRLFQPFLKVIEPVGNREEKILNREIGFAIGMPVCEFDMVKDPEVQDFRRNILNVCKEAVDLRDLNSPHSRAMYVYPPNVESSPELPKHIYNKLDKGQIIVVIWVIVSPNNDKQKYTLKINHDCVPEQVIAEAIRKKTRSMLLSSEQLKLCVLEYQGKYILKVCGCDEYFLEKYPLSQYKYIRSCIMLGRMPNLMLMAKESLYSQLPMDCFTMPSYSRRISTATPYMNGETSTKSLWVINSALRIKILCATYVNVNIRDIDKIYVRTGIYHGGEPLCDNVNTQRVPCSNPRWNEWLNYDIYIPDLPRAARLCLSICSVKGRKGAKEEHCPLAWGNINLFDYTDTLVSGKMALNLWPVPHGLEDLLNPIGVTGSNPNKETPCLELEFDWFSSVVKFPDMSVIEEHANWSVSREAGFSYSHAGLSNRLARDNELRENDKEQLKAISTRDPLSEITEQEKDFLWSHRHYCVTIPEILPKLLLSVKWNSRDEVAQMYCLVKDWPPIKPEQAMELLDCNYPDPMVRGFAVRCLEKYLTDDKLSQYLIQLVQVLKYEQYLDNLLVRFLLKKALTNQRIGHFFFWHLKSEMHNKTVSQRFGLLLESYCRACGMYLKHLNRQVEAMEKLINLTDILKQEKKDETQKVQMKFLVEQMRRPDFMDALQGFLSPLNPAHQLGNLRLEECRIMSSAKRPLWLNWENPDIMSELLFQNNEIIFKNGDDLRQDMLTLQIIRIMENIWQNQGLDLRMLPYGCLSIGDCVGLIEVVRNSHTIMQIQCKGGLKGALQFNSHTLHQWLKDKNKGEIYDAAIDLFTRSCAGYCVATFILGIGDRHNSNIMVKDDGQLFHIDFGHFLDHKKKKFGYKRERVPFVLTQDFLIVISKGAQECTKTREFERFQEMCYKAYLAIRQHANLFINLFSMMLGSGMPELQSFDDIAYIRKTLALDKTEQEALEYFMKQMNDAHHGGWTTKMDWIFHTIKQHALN
Sequence (P27986 whole entry partner): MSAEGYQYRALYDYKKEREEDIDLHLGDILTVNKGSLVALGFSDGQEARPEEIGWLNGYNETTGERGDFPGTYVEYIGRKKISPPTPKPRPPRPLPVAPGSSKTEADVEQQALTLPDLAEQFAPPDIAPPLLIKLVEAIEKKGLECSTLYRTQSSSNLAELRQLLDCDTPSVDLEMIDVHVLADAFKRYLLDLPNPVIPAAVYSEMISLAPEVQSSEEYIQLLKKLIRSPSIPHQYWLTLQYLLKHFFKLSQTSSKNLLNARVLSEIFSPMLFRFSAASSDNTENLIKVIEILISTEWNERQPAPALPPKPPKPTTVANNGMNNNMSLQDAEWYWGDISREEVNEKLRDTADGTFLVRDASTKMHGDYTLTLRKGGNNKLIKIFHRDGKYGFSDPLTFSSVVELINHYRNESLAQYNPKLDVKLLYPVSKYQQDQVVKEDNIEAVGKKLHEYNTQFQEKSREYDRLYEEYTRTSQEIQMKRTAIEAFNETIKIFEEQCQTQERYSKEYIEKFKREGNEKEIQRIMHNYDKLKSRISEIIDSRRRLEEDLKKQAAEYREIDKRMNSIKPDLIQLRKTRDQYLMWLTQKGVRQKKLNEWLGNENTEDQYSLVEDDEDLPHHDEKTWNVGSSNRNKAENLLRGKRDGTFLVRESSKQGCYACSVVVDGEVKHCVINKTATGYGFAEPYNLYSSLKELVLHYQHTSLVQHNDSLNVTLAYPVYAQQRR
experiment summary: PI3Kα ADP-Glo assay
test parameters: 20 μM PIP2, 10 μM ATP, 30 minutes
pIC50: −log10 of the molar value.
endpoint name: pIC50

Reference set, count: 5
molecule | pIC50
CN(Cc1cc2nc(-c3cccc(CN)c3)nc(N3CCOCC3)c2s1)c1ncc(C(=O)NO)cn1 [Compound 137] | 5.00 to 6.00
CN(Cc1cc2nc(-c3cccc(NS(C)(=O)=O)c3)nc(N3CCOCC3)c2s1)c1ncc(C(=O)NO)cn1 [Compound 288] | < 5.00
O=C(O)CN(Cc1cc2nc(-c3cccc4[nH]ncc34)nc(N3CCOCC3)c2s1)c1ncc(C(=O)NO)cn1 [Compound 88] | > 7.00
CN(Cc1cc2nc(-c3ccc(CO)cc3)nc(N3CCOCC3)c2s1)c1ncc(C(=O)NO)cn1 [Compound 140] | 6.00 to 7.00
CN(Cc1cc2nc(-c3cccc4c3CCN4)nc(N3CCOCC3)c2s1)c1ncc(C(=O)NO)cn1 [Compound 177] | < 5.00

Given the entry CN(C)CCOc1ccc(-c2nc(N3CCOCC3)c3sc(CN(C)c4ncc(C(=O)NO)cn4)cc3n2)cn1 [Compound 257] , report its measured pIC50.
< 5.00

What about this molecule? COc1ccc(-c2nc(N3CCOCC3)c3sc(S(=O)(=O)Nc4ncc(C(=O)NO)cn4)cc3n2)cn1 [Compound 252]
> 7.00

* * *

tested on: PI3Kα (p110α/p85α) (Homo sapiens)
Construct: GST (N); made in house; host or cells: Baculovirus-infected Sf9 cells
experiment summary: PI3Kα ADP-Glo assay
Format: biochemical
test parameters: 20 μM PIP2, 10 μM ATP, 30 minutes
Each entry below carries its reported IC50.

Reference set, count: 3
compound | meas value
CN(Cc1cc2nc(-c3cccnc3)nc(N3CCOCC3)c2s1)c1ncc(C(=O)NO)cn1 [Compound 109] | < 100 nM
CN(Cc1cc2nc(-c3ccc4c(c3)NC(=O)CO4)nc(N3CCOCC3)c2s1)c1ncc(C(=O)NO)cn1 [Compound 183] | > 10000 nM
Nc1ccc(-c2nc(N3CCOCC3)c3sc(CN4CCN(c5ncc(C(=O)NO)cn5)CC4)cc3n2)cc1 [Compound 207] | 100 to 1000 nM

Given the entry CN(Cc1cc2nc(-c3cccc(N)c3)nc(N3CCOCC3)c2s1)c1ncc(C(=O)NO)cn1 [Compound 134] , report its measured IC50.
100 to 1000 nM

What about this compound? CCc1ncc(-c2nc(N3CCOCC3)c3sc(CN(C)c4ncc(C(=O)NO)cn4)cc3n2)cn1 [Compound 121]
< 100 nM

What about this compound? Nc1ccc(-c2nc(N3CCOCC3)c3sc(CN(CCO)c4ncc(C(=O)NO)cn4)cc3n2)cc1F [Compound 277]
< 100 nM

What about this compound? CN(Cc1cc2nc(-c3cc(F)c(N)c(F)c3)nc(N3CCOCC3)c2s1)c1ncc(C(=O)NO)cn1 [Compound 282]
100 to 1000 nM
